System: Saccharomyces cerevisiae BY4741 SeMeCo community
protocolText: z-score of subpopulation abundance vs DMSO median, subpopulation auxotrophic for M; higher = larger share of this subpopulation than in DMSO controls
conditionsUsed: 10 µM; 24 h; SM minimal medium; subpopulation (auxotrophy): M
Counter-ions that a name gives are not always drawn.
Short version: z-score of subpopulation abundance at least -0.1 is true (1), less is false (0).

1) C[C@]12CC[C@@H]3c4ccc(O)cc4CC[C@H]3[C@@H]1C[C@@H](O)[C@@H]2O [Estriol] = false (0)
2) CCN1CCC[C@H]1CNC(=O)c1cc(S(N)(=O)=O)ccc1OC [Levosulpiride] = false (0)
3) COc1cc(C(C)=O)ccc1OCCCN1CCC(c2noc3cc(F)ccc23)CC1 [Iloperidone] = true (1)
4) Cc1cc2c(s1)Nc1ccccc1N=C2N1CCN(C)CC1 [Olanzapine] = true (1)
5) CO[C@@]1(NC(=O)Cc2cccs2)C(=O)N2C(C(=O)O)=C(COC(N)=O)CS[C@@H]21 [Cefoxitin sodium] = false (0)
6) CN(CCOc1ccc(NS(C)(=O)=O)cc1)CCc1ccc(NS(C)(=O)=O)cc1 [Dofetilide] = false (0)
7) CC1(C)S[C@@H]2[C@H](NC(=O)[C@H](NC(=O)N3CCNC3=O)c3ccccc3)C(=O)N2[C@H]1C(=O)O [Azlocillin sodium salt] = false (0)
8) CC[N+](CC)(CC)CC [Tetraethylammonium bromide] = true (1)
9) Cn1cc(C(=O)[C@@H]2CCc3[nH]cnc3C2)c2ccccc21 [Ramosetron Hydrochloride] = true (1)
10) Nc1c2c(nc3ccccc13)CCCC2 [Tacrine hydrochloride hydrate] = true (1)
11) O=C(CCCN1CCC(O)(c2ccc(Cl)cc2)CC1)c1ccc(F)cc1 [Haloperidol] = false (0)
12) CC[C@@H]1/C=C(\C)C[C@H](C)C[C@H](OC)[C@H]2O[C@@](O)(C(=O)C(=O)N3CCCC[C@H]3C(=O)O[C@H](/C(C)=C/[C@@H]3CC[C@@H](O)[C@H](OC)C3)[C@H](C)[C@@H](O)CC1=O)[C@H](C)C[C@@H]2OC [Ascomycin (FK520)] = true (1)
13) CC(C)c1c(C(=O)Nc2ccccc2)c(-c2ccccc2)c(-c2ccc(F)cc2)n1CC[C@@H](O)C[C@@H](O)CC(=O)O [Atorvastatin] = false (0)
14) C[N+](C)(C)CCOC(=O)CCC(=O)OCC[N+](C)(C)C [Succinylcholine Chloride Dihydrate] = true (1)
15) OCCN(CCO)c1nc(N2CCCCC2)c2nc(N(CCO)CCO)nc(N3CCCCC3)c2n1 [Dipyridamole] = true (1)
16) CC(C)NC(=N)NC(=N)Nc1ccc(Cl)cc1 [Proguanil] = true (1)
17) Clc1ccc2c(N3CCN(CCCN4CCN(c5ccnc6cc(Cl)ccc56)CC4)CC3)ccnc2c1 [Piperaquine phosphate] = true (1)
18) COc1cc2c(cc1OC)[C@@H]1Cc3ccc(OC)c(OC)c3CN1CC2 [Rotundine] = true (1)
19) Cc1ccccc1OCC(O)CO (configuration not stated) [Mephenesin] = true (1)
20) O=C(NCCN1CCOCC1)c1ccc(Cl)cc1 = true (1)
21) COc1cccc2c1C(=O)c1c(O)c3c(c(O)c1C2=O)CC(O)(C(=O)CO)CC3OC1CC(N)C(O)C(C)O1 (configuration not stated) [Doxorubicin (Adriamycin) HCl] = false (0)
22) CO[C@@H]1[C@@H](O[C@@H]2O[C@H](C)[C@@H](O[C@H]3C[C@@](C)(O)[C@@H](O)[C@H](C)O3)[C@H](N(C)C)[C@H]2O)[C@@H](CC=O)C[C@@H](C)[C@@H](O[C@H]2CC[C@H](N(C)C)[C@@H](C)O2)/C=C/C=C/C[C@@H](C)OC(=O)C[C@H]1OC(C)=O [Acetylspiramycin (ASPM)] = false (0)
23) O=C1CN(/N=C/c2ccc([N+](=O)[O-])o2)C(=O)N1 [Nitrofurantoin] = true (1)
24) Cc1cc(NS(=O)(=O)c2ccc(N)cc2)no1 [Sulfamethoxazole sodium] = true (1)
25) O=C(c1ccc(OCCN2CCCCC2)cc1)c1c(-c2ccc(O)cc2)sc2cc(O)ccc12 [Raloxifene] = false (0)
26) O=C1NC(=O)C(c2ccccc2)(c2ccccc2)N1 [Phenytoin] = true (1)
27) CCN1CCN(c2cc3c(cc2F)c(=O)c(C(=O)O)cn3C2CC2)CC1 [Enrofloxacin] = true (1)
28) Cc1ccc(Cl)c(Nc2ccccc2C(=O)O)c1Cl [Meclofenamate Sodium] = true (1)
29) CCN(Cc1ccncc1)C(=O)C(CO)c1ccccc1 (configuration not stated) [Tropicamide] = false (0)
30) CN1CCN(C2=Nc3cc(Cl)ccc3Nc3ccccc32)CC1 [Clozapine] = false (0)
31) Nc1nnc(-c2cccc(Cl)c2Cl)c(N)n1 [Lamotrigine] = true (1)
